Answer each item with its documented Papp at 18 h, 50 µM.
Experiment: Permeability of the compound at 50 uM after 18 hrs by PAMPA
Format: ADME
Settings: read-out: permeability
Answers are plain numbers, in ×10⁻⁶ cm/s.

[Q] What measured Papp at 18 h, 50 µM goes with COc1cc2c(NC3CCN(C)CC3)cc(-c3ccccc3)nc2cc1OCCCN1CCCC1 ?
[A] 1.69

[Q] How about COc1cc2c(NC3CCN(C)CC3)cc(C3CCCCC3)nc2cc1OCCCN1CCCC1 ?
[A] 1.98

[Q] What do we get for COc1cc2c(NC3CCN(C)CC3)cc(-c3cccnc3)nc2cc1OCCCN1CCCC1 ?
[A] 0.22

[Q] Same for CCNCc1ccc(-c2cc(NC3CCN(C)CC3)c3cc(OC)c(OCCCN4CCCC4)cc3n2)o1
[A] 0.13

[Q] Also COc1cc2c(NC3CCN(C)CC3)cc(C3CCOCC3)nc2cc1OCCCN1CCCC1 ?
[A] 0.22

Need Papp at 18 h, 50 µM for each of these compounds.
1. COc1cc2c(NC3CCN(C(C)C)CC3)cc(-c3ccc(C)o3)nc2cc1OCCCN1CCCC1
2. COc1cc2c(NC3CCN(C4CC4)CC3)cc(-c3ccc(C)o3)nc2cc1OCCCN1CCCC1
3. COc1cc2c(NC3CCN(C)CC3)cc(-c3ccc(CO)o3)nc2cc1OCCCN1CCCC1
4. COc1cc2c(NC3CCN(C)CC3)cc(-c3ccc(C)s3)nc2cc1OCCCN1CCCC1
5. CCc1ccc(-c2cc(NC3CCN(C4CC4)CC3)c3cc(OC)c(OCCCN4CCCC4)cc3n2)o1

[A]
1. 2.58
2. 4.04
3. 0.05
4. 2.91
5. 5.56

====

For each of the molecules below, state its IC50.
Molecular target: DNA (cytosine-5)-methyltransferase 1 (Homo sapiens, UniProt P26358)
Sequence (P26358 whole entry): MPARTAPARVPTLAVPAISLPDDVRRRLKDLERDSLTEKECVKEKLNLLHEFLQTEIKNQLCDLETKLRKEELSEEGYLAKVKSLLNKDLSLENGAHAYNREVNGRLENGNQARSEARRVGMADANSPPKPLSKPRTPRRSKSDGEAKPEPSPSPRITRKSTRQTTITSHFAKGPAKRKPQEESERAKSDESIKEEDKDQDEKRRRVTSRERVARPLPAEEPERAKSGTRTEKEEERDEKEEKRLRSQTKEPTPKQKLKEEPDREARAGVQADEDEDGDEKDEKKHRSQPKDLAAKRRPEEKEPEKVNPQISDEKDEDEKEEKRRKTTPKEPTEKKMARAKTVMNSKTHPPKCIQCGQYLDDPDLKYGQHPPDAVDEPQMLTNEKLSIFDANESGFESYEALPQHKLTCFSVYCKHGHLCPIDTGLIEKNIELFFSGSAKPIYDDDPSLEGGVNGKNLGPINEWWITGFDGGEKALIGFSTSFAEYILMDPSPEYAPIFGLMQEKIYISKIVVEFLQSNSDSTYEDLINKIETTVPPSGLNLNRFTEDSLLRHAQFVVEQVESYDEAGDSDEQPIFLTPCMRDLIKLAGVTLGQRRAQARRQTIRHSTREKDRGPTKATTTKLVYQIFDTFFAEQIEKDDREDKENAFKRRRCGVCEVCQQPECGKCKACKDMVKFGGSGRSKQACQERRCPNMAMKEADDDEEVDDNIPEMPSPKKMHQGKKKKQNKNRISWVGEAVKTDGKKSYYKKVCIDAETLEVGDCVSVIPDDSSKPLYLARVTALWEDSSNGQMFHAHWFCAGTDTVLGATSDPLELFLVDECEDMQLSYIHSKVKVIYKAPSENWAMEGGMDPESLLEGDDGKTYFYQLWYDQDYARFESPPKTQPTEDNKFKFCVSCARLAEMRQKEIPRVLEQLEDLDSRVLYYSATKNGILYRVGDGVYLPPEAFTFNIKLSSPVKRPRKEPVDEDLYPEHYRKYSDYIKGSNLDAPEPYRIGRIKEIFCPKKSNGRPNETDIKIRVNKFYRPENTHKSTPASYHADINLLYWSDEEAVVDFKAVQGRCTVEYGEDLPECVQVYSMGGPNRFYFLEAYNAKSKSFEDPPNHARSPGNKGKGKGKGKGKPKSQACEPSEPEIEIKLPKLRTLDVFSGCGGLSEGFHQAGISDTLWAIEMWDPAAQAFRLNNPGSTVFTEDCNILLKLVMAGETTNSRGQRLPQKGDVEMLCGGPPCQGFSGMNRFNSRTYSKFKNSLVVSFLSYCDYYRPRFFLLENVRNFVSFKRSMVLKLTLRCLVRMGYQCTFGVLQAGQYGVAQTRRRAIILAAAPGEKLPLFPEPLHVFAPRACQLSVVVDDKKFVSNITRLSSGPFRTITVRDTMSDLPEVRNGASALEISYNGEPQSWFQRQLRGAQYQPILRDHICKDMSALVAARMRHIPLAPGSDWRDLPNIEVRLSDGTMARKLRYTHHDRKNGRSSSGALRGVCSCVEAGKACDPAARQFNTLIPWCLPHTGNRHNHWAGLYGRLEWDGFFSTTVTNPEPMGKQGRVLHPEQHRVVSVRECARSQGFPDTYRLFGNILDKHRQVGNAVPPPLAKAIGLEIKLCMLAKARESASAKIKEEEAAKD
Assay: Inhibition of human DNMT1 using polydeoxyinosine polydeoxycytosine DNA as substrate after 15 mins in presence of SAM by TR-FRET assay
Answers are plain numbers, in nM.

See these solved cases before continuing.
[Q] Endpoint output: IC50 of COc1cc2c(NC3CCN(C)CC3)cc(C)nc2cc1OCCCN1CCCC1 . Value?
[A] 929

[Q] Same question for CCNCc1ccc(-c2cc(NC3CCN(C)CC3)c3cc(OC)c(OCCCN4CCCC4)cc3n2)o1 please.
[A] 618

[Q] Now consider COc1cc(NC2CCN(C)CC2)c2cc(OC)c(OCCCN3CCCC3)cc2n1 and answer again.
[A] 2290

[Q] Can you check COc1cc2c(NC3CCN(C)CC3)cc(-c3cc4ccccc4o3)nc2cc1OCCCN1CCCC1 next?
[A] 1070

Next up:
[Q] Any idea what its IC50 is? The molecule is Nc1ncn([C@@H]2O[C@H](CO)[C@@H](O)[C@H]2O)c(=O)n1
[A] 300

====

Assay: Clearance in RARG2-/-gammac-/- Balb/c mouse at 5 mg/kg, iv administered as single dose by LC-MS/MS analysis
Assay type: ADME, organism-based
Details: in vivo
OUTCOME_MEASURE: clearance (mL/min/kg)
Numbers only, in mL/min/kg.

[Q] Can you look up the measured clearance of COc1cc2c(NC3CCN(C4CC4)CC3)cc(-c3ccc(C)o3)nc2cc1OCCCN1CCCC1 for me?
[A] 15

====

Target: DNA (cytosine-5)-methyltransferase 1 (Homo sapiens)
Experiment: Competitive inhibition of human DNMT1 using 1 to 100 ug/ml polydeoxyinosine polydeoxycytosine DNA as substrate after 15 mins in presence of SAM by TR-FRET assay
pIC50: −log10 of the molar value.
OUTCOME_MEASURE: pIC50

[Q] What value of pIC50 has been reported for the following molecule? COc1cc2c(NC3CCN(C(C)C)CC3)cc(C3CCCCC3)nc2cc1OCCCN1CCCC1
[A] 5.00 to 5.85

====

Assay: AUC (0 to 24 hrs) in RARG2-/-gammac-/- Balb/c mouse at 5 mg/kg, iv administered as single dose by LC-MS/MS analysis
Assay type: ADME, organism-based
Design: dose 5 mg/kg, time < 24 hr, route intravenous
Conditions: in vivo
OUTCOME_MEASURE: AUC(0-t) at 24 h (µM·h)
Answers are plain numbers, in µM·h.

[Q] Reported AUC(0-t) at 24 h for COc1cc2c(NC3CCN(C4CC4)CC3)cc(-c3ccc(C)o3)nc2cc1OCCCN1CCCC1 : what is it?
[A] 8.79

====

Provide the recorded GI50 for the entries that follow.
Test system: MV4-11
Assay: Growth inhibition of human MV4-11 cells after 48 hrs by MTS assay
Type: functional
Conditions: MV4-11, 48 h
One number for each entry, in nM.

[Q] Value lookup for GI50; key = COc1cc2c(NC3CCN(C)CC3)cc(-c3ccc(C)s3)nc2cc1OCCCN1CCCC1
[A] 3100

[Q] Also, COc1cc2c(NC3CCN(C(C)C)CC3)cc(-c3ccc(C)o3)nc2cc1OCCCN1CCCC1 please.
[A] 649

[Q] Request: COc1cc2c(NC3CCN(C4CC4)CC3)cc(-c3ccc(C)o3)nc2cc1OCCCN1CCCC1
[A] 1590

[Q] // repeat for CCc1ccc(-c2cc(NC3CCN(C(C)C)CC3)c3cc(OC)c(OCCCN4CCCC4)cc3n2)o1 and report
[A] 971

[Q] And then COc1cc2c(NC3CCN(C)CC3)cc(-c3ccc(C)o3)nc2cc1OCCCN1CCCC1 , what is it?
[A] 269

Please give GI50, item by item, for the list that follows.
1. COc1cc2c(NC3CCN(C)CC3)cc(-c3ccccc3)nc2cc1OCCCN1CCCC1
2. CCc1ccc(-c2cc(NC3CCN(C4CC4)CC3)c3cc(OC)c(OCCCN4CCCC4)cc3n2)o1

[A]
2600
3510

====

Assay: AUC (0 to 24 hrs) in RARG2-/-gammac-/- Balb/c mouse at 5 mg/kg, ip administered as single dose by LC-MS/MS analysis
Type: ADME, organism-based
Set-up: time < 24 hr, dose 5 mg/kg, route intraperitoneal
Conditions: in vivo
OUTCOME_MEASURE: AUC(0-t) at 24 h (µM·h)
Numbers only, in µM·h.

[Q] Tell me the measured AUC(0-t) at 24 h of COc1cc2c(NC3CCN(C(C)C)CC3)nc(N3CCC(F)(F)CC3)nc2cc1OCCCN1CCCC1 , please.
[A] 2.31

====

Target: CYP1A2 (Homo sapiens, UniProt P05177)
Sequence (P05177 whole entry): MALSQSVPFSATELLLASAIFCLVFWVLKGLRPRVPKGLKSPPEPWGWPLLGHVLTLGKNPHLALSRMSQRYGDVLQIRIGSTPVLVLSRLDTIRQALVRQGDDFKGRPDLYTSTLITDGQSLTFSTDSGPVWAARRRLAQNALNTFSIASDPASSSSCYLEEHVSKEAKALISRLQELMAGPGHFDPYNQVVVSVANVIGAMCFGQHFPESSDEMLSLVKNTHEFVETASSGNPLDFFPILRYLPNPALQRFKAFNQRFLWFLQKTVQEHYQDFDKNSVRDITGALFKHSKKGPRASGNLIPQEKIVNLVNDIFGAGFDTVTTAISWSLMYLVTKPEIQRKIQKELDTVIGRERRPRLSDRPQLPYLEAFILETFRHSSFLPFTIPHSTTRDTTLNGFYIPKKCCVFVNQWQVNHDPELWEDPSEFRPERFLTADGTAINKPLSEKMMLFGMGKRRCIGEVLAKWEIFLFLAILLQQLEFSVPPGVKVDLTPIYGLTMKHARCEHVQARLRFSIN
Experiment: Inhibition of CYP1A2 in human liver microsomes at 10 uM after 10 mins in presence of NADPH by LC-MS/MS analysis relative to control
Assay type: ADME
OUTCOME_MEASURE: inhibition at 10 min, 10 µM (%)
Numbers only, in %.

[Q] Any idea what its inhibition at 10 min, 10 µM is? The molecule is COc1cc2c(NC3CCN(C4CC4)CC3)cc(-c3ccc(C)o3)nc2cc1OCCCN1CCCC1
[A] 28.6

Please turn your attention to the following entry.
[Q] Look up inhibition at 10 min, 10 µM: COc1cc2c(NC3CCN(C(C)C)CC3)cc(-c3ccc(C)o3)nc2cc1OCCCN1CCCC1
[A] 4.3

====

Experiment: Half life in mouse liver microsomes at 1 uM preincubated for 10 mins followed by NADP addition after 20 mins by LC-MS/MS analysis
Format: ADME, microsome
OUTCOME_MEASURE: half-life at 1 µM (min)
Give bare numbers, in min.

Use the examples below as a reference point.
[Q] // query half-life at 1 µM value for entry COc1cc2c(NC3CCN(C(C)C)CC3)cc(-c3ccc(C)o3)nc2cc1OCCCN1CCCC1
[A] 18

[Q] Also need COc1cc2c(NC3CCN(C)CC3)cc(-c3ccc(C)o3)nc2cc1OCCCN1CCCC1 , thanks.
[A] 36

[Q] One more compound: COc1cc2c(NC3CCN(C4CC4)CC3)cc(-c3ccc(C)o3)nc2cc1OCCCN1CCCC1
[A] 6

Further cases:
[Q] Can you look up the measured half-life at 1 µM of CCc1ccc(-c2cc(NC3CCN(C)CC3)c3cc(OC)c(OCCCN4CCCC4)cc3n2)o1 for me?
[A] 12

====

Biological target: UniProtKB P26358
Experiment: Non-competitive inhibition of human DNMT1 using polydeoxyinosine polydeoxycytosine DNA as substrate after 15 mins in presence of 1 to 20 uM SAM by TR-FRET assay
OUTCOME_MEASURE: IC50

[Q] Request - read-out IC50 | tested on UniProtKB P26358 | molecule COc1cc2c(NC3CCN(C(C)C)CC3)cc(C3CCCCC3)nc2cc1OCCCN1CCCC1
[A] 1400 to 2400 nM

====

Molecular target: UniProt:P26358
Test: Inhibition of human DNMT1 using polydeoxyinosine polydeoxycytosine DNA as substrate after 15 mins in presence of SAM by TR-FRET assay
Field: class. Source value: IC50. Ranges: low group: < 400 nM; middle group: ≥ 400 nM and < 1000 nM; high group: ≥ 1000 nM

Please review the entries below; each comes with its answer.
[Q] GET /class?item= COc1cc2c(NC3CCN(C4CC4)CC3)cc(-c3ccc(C)o3)nc2cc1OCCCN1CCCC1
[A] middle group

[Q] Now the same for COc1cc2c(NC3CCN(C)CC3)cc(-c3ccn(C)n3)nc2cc1OCCCN1CCCC1
[A] middle group

[Q] One more molecule: COc1cc2c(NC3CCN(C)CC3)cc(-c3ccc(CN(C)C)o3)nc2cc1OCCCN1CCCC1
[A] high group

[Q] // next record CCc1ccc(-c2cc(NC3CCN(C4CC4)CC3)c3cc(OC)c(OCCCN4CCCC4)cc3n2)o1
[A] low group

[Q] Can you handle COc1cc2c(NC3CCN(C)CC3)cc(-c3ccccc3C)nc2cc1OCCCN1CCCC1 next?
[A] middle group

Others:
[Q] Band for the recorded IC50 of COc1cc2c(NC3CCN(C)CC3)cc(-c3cccnc3)nc2cc1OCCCN1CCCC1 ?
[A] high group

[Q] Try COc1cc2c(NC3CCN(C)CC3)cc(-c3ccc(C)[nH]3)nc2cc1OCCCN1CCCC1 next.
[A] low group

[Q] Please answer likewise for COc1cc2c(NC3CCN(C)CC3)cc(-c3ccc(CO)o3)nc2cc1OCCCN1CCCC1
[A] middle group

[Q] Let us now turn to COc1cc2c(NC3CCN(C)CC3)cc(-c3ccccc3)nc2cc1OCCCN1CCCC1
[A] high group
